Origin of measurements: PubChem BioAssay

target: Nuclear receptor coactivator 1 (Homo sapiens); assay: SRC1 coactivator transcriptional activity inhibitors, confirmation, cell-based, luminescence, quadruplicate (AID 588820); details: HEK293 GAL4-SRC1 luciferase reporter, at 3.6 µM;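 further: 0% = DMSO wells and 100% = gossypol 36 µM treated wells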
The source made the active and inactive calls.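 How the source made its calls: active means mean inhibition above 46.68%, the untreated control wells mean plus 3 SD; inactive means the rest.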
Classes used: active, inactive

Compound	Category Label
CN(C(=O)COC(=O)/C=C/c1cccc([N+](=O)[O-])c1)C1CCS(=O)(=O)C1 (stereo not drawn)	inactive
CN=c1scc(-c2ccccc2F)n1/N=C/c1ccc[nH]1	active
O=c1c2ccccc2oc2cc(C#CC3(O)CCCCC3)ccc12	inactive
COc1ccc(-c2cc3nc(C)n(N)c(=O)c3s2)cc1	inactive
C=C(C)Cn1c(SCC(=O)O)nc2c1c(=O)[nH]c(=O)n2C	inactive
COc1ccc(-c2oc3ccc(N4CCOCC4)cc3c2C#CCO)cc1	inactive
CCCCn1c2c(c(=N)c3c1CCC3)CCC2	inactive
CCN(CC)CCNC(=O)c1ccc(NC(=O)C2CCN(c3ncnc4sc(C)c(C)c34)CC2)cc1	inactive
NS(=O)(=O)c1ccc(CCNC(=O)c2ccc(C#CC3(O)CCCCC3)cc2)cc1	inactive
COc1ccc(C(=O)n2cc(C(=O)c3cc(C)ccc3O)cn2)cc1OC	inactive
C[n+]1c2n(c3ccccc31)N=C(c1ccc(Br)cc1)CS2	inactive
CCOC(=O)C1CCN(S(=O)(=O)c2ccc3c(c2)CC(C)N3C(=O)C2CC2)CC1 (stereo not drawn)	inactive
CCCc1cc(=O)oc2c(C)c(O[C@@H]3O[C@H](CO)[C@@H](O)[C@H](O)[C@H]3O)ccc12	inactive
Nc1nc(N)nc(-c2cc(O)ccc2O)n1	active
O=S(=O)(c1cccc(C(F)(F)F)c1)N1c2ccccc2-n2cccc2C1c1cccnc1 (stereo not drawn)	inactive
CCOC(=O)c1ccc2c(c1)n(CC)c(/C=C/N(C)c1ccccc1)[n+]2CC	inactive
COc1cccc(N2CCN(c3ncnc4c3[nH]c3ccc(F)cc34)CC2C)c1 (stereo not drawn)	active
Cc1ccc(OCC(=O)NNC(=O)c2ccc3c(=O)n4c(nc3c2)CCC4)cc1	inactive
O=C(N/N=C/c1cc([N+](=O)[O-])ccc1O)c1cccc(N2CCCC2=O)c1	inactive
CC1=C(C(=O)OCc2ccc3c(c2)OCO3)C(c2ccc(F)cc2)NC(=O)N1 (stereo not drawn)	active
OCC1OC(n2cnc3c(NCc4ccccc4O)ncnc32)C(O)C1O (stereo not drawn)	inactive
CC(=O)c1sc2nc(C)c3c(c2c1N)CCCC3	inactive
Cc1ccc(/C=N/NC(=O)C2=NNC(c3ccccc3)(c3ccccc3)C2)c(O)c1	inactive
CCOc1cc(C(N)=O)cc(Br)c1OCC	inactive
O=C(CCCc1nc(-c2ccccc2Cl)no1)NC1CCCC1	inactive
COc1cccc(N2CC(NS(=O)(=O)c3cccnc3)CC2=O)c1 (stereo not drawn)	inactive
c1ccc(-c2ccc(-c3nc(-c4ccccn4)no3)cc2)cc1	inactive
Cc1ccc(C(=O)Nc2sc(C)c(-c3ccccc3)c2C(N)=O)cc1[N+](=O)[O-]	inactive
O=S(=O)(Nc1ccc2c(c1)OCCO2)c1cccc2nsnc12	inactive
CC(=O)OCC1OC(n2cc(F)c(=O)[nH]c2=O)C(OC(C)=O)C1OC(C)=O (stereo not drawn)	inactive
CC(C)(C)C(=O)/C(=C/c1ccncc1)n1cncn1	active
O=C(Nc1ccccc1Oc1ccccc1)c1cc([N+](=O)[O-])ccc1Cl	inactive
CCOc1cc(/C=C2\CN(C)C/C(=C\c3ccc(O)c(OCC)c3)C2=O)ccc1O	inactive
C/C(=N\NC(=O)Cc1ccc(Cl)cc1)c1ccccn1	inactive
O=C(OC(c1ccccc1)c1nccc2ccccc12)c1ccccc1 (stereo not drawn)	inactive
CN(C(=O)c1cccc(NC(=O)Cc2ccc(NC(=O)C3CCCN(C(=O)CCc4ccccc4)C3)cc2)c1)C1CCCCC1 (stereo not drawn)	inactive
COc1cc(C=CC(=O)c2cc(OC)c(OC)c(OC)c2)cc(OC)c1OC	inactive
COCC(=O)OC1CCn2c1nc1c2C(=O)C(C)=C(NC(C)=O)C1=O (stereo not drawn)	active
CN1OC[C@@H]2CN[C@H](c3ccc(-c4cc5ccccc5o4)cc3)C[C@@H]21	active
Cc1nnc(N2CCN(Cc3ccccc3)CC2)[nH]c1=O	inactive
CN(C)c1ccc(/C=C/c2ccc3ccccc3n2)cc1	inactive
COc1ccc(OCCN2CCN(C(=O)c3ccc(OC(F)F)c(OC)c3)CC2)cc1	inactive
O=C1C(Nc2ccccc2)=C/C(=N/S(=O)(=O)c2cccs2)c2ccccc21	inactive

====

experiment: STAT1 signaling activators, confirmation, cell-based, HTS, luciferase reporter (AID 1262); settings: NIH 3T3 STAT1-luciferase reporter, IFN-gamma potentiation, luminescence; at 5.7 µM; 100% = IFN-gamma EC80 alone, no compound;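 further: simple ratio to median IFN-gamma plus DMSO wells so 0% means no light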
Some of the results follow. Active and inactive are the calls of the source.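 The calls were made as follows: active = activation above a set limit carried over from the earlier primary STAT1 screen (cut at about 140% in these data); inactive = the rest.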
Classes used: active, inactive

Molecule	Category Label
CN(c1ccc(C(=O)NCCC2=CCCCC2)cc1)S(C)(=O)=O	active
NC(=O)Cc1ccc2sc(-c3ccccc3)nc2c1	active
Cn1nnc2cc(C(=O)NCCC3=CCCCC3)ccc21	active
Cc1[nH]n(-c2ccccc2)c(=O)c1/C=N/NC(=O)c1ccoc1C	inactive
CC(=O)c1sc(NC(=O)c2ccc(C)cc2)nc1C	active
c1ccc(Nc2nc(-c3ccncc3)cs2)nc1	active
Cc1cccc(NC(=O)Nc2ccc3c(c2)OCO3)n1	active
Cc1ccc2cc3cc(C(=O)N4CCCCCC4)oc3nc2c1	active
COc1ccc(-n2nnnc2-c2nc3ccccc3s2)cc1	active
CC1CN/C(=C\C(=O)c2ccc(Br)cc2)C(=O)N1 (configuration not stated)	active
COc1ccc2oc(-c3cccc(NC(=O)CSc4ccc(Cl)cc4)c3)nc2c1	active
COc1ccc(CS(=O)/C(Cl)=C(/Cl)C(=O)Nc2ccc(OC)nc2)cc1 (configuration not stated)	active

====

target: Nuclear receptor coactivator 2 (Homo sapiens); experiment: SRC2 coactivator transcriptional activity inhibitors, confirmation, cell-based, luminescence, HEK293, triplicate (AID 652008); conditions: HEK293 GAL4-SRC2 luciferase reporter, at 8.9 µM, active compounds read high;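 further: 0% = DMSO-treated cells and 100% = Gossypol at 36 µM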
# inhibition >= 30% gives yes, anything below gives no

Molecule	Category Label
COc1ccc(/C=C/C(=O)Nc2ccccc2C(=O)O)cc1OC	yes
Cc1nc(SCC(=O)Nc2nc3ccccc3s2)c(C#N)c(C)c1C	yes
N#Cc1ccccc1COc1ccc(/C=C/C(=O)O)cc1	yes
Cc1ccc(-c2cc(C(=O)NCCCN3CCOCC3)no2)cc1	yes
Cc1sc2ncnc(NC3CCN(Cc4ccccc4)CC3)c2c1C	no
COc1ccc(-n2c(C)c([N+](=O)[O-])c3ccc(O)c(CN(C)C)c32)cc1	yes
CCc1ccc(C(=O)Nc2nc3ccccc3[nH]2)cc1	yes
CC(=O)Nc1cccc(-c2cc(NC(C)=O)c3ncc(-c4ccccc4)n3c2)c1	no
O=C(NC1CCCCC1)C(c1cccnc1)N(C(=O)CCl)c1ccccc1Cl (stereo unspecified)	yes
COc1ccccc1CNS(=O)(=O)c1ccc(-c2cc(C)no2)cc1	no
COc1ccccc1N(CC(=O)N/N=C(\C)c1ccccc1O)S(=O)(=O)c1ccc(C)cc1	no

====

assay: StAR promoter reporter inhibitors, counter-screen for LRH-1 inverse agonist project, cell-based, luminescence, high throughput (AID 651611); details: StAR promoter luciferase reporter counterscreen, at 3.6 µM, active compounds read high
Activity calls are given as the source filed them. No stated cut-off is given here; in the data, active means inhibition above about 28%; inactive means the rest.
Result Type: inhibition

Molecule	Result Type	Measured Result
O=C(Nc1ccc(F)cc1)c1oc2ccccc2c1NC(=O)C1CC1	inhibition	24.4% (inactive)
CCCN(CC(=O)Nc1ccc(C(C)=O)cc1)CC(=O)Nc1ccccc1C	inhibition	1.27% (inactive)
Nc1ccc(Br)c2cccnc12	inhibition	3.69% (inactive)
CN(C)c1ccc(NC(=O)CSc2nnc(-c3ccco3)c(-c3ccco3)n2)cc1	inhibition	14.1% (inactive)
O=C(CCl)Nc1cccc2ncccc12	inhibition	55.6% (active)
Cc1ccccc1C(=O)N1CCN(c2ccc(NC(=O)c3ccc([N+](=O)[O-])o3)cc2)CC1	inhibition	25.2% (inactive)
Cc1ccc(Oc2ccc(C(=O)NCc3ccncc3)cc2)cc1	inhibition	10.2% (inactive)
N=c1c2c(n(Cc3ccc(Cl)cc3)c3c1CCC3)CCC2	inhibition	58.6% (active)
CCCCCCCCn1c2c(c(=N)c3c1CCC3)CCCC2	inhibition	78.1% (active)
CC(O)CC(=O)OC[C@]12CC[C@H]3[C@@](C)(CC[C@H]4C(C)(C)CCC[C@]34C)[C@@H]1CC(C1=CC(=O)OC1O)O2 (stereo partly specified)	inhibition	51.2% (active)
COc1cc2c(OC(C)=O)c3c(c(-c4ccc5c(c4)OCO5)c2cc1OC)C(=O)OC3	inhibition	55.8% (active)
CCN1CCN(c2ccc(S(=O)(=O)N3CCCCC3)cc2NC(=O)/C=C/c2ccc([N+](=O)[O-])cc2)CC1	inhibition	0.06% (inactive)
O=C(CN1C(=O)c2ccccc2S1(=O)=O)c1ccc2c(c1)OCCO2	inhibition	85.1% (active)
NC(=O)[C@H]1CC2(CC(c3cccc(NC(=O)COc4ccc(Cl)cc4)c3)=NO2)CN1C(=O)Cc1ccc([N+](=O)[O-])cc1 (stereo partly specified)	inhibition	13.5% (inactive)
CC(C)OC(=O)C(=O)NNc1ccccc1	inhibition	12.3% (inactive)
COc1ccc(C(=O)Nc2cnccn2)cc1[N+](=O)[O-]	inhibition	-2.94% (inactive)
Cc1cc(Cl)ccc1NC(=O)CN1C(=O)C(=O)N(C2CCCC2)C1=O	inhibition	5.58% (inactive)
O=C(COC(=O)c1cccc(O)c1)Nc1ccc(N2CCOCC2)cc1	inhibition	13.6% (inactive)
Cc1onc(NC(=O)c2ccc([N+](=O)[O-])o2)c1Br	inhibition	4.26% (inactive)
COc1ccc(CCNC(=O)CSc2nc(O)c(CCC(C)C)c(=O)[nH]2)cc1OC	inhibition	2.2% (inactive)
CCc1c(C)nc(SCC(=O)Nc2ccc3c(c2)OCCO3)[nH]c1=O	inhibition	14.5% (inactive)
